# Study target: Protein cereblon/Histone-lysine N-methyltransferase EZH2 (Homo sapiens) (UniProt Q15910+Q96SW2)
# Sequence (Q96SW2 whole entry, looked up, one chain of several): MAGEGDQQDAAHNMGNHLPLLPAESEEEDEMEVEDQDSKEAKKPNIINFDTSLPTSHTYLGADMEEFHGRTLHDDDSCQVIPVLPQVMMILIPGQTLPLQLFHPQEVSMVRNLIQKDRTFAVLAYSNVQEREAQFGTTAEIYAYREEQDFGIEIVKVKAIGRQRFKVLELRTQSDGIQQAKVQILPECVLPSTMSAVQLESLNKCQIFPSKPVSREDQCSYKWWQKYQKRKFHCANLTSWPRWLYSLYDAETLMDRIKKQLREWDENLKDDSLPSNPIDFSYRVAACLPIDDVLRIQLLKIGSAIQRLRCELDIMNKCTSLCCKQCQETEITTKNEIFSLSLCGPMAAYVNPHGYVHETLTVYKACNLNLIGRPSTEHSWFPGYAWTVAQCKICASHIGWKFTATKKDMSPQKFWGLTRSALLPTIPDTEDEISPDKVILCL
# Assay: Protac activity at CRBN E3 ligase/EZH2 in human 22Rv1 cells assessed as inhibition of H3K27me3 at 1 uM incubated for 48 hrs by Western blot analysis
# Type: cell-based
The source made the active and inactive calls. The calls are words filed in the database; no cut-off is given here.
Assay metric: Activity

1. CCN(c1cc(-c2ccc(C(=O)NCCCCCCCCNC(=O)COc3cccc4c3C(=O)N(C3CCC(=O)NC3=O)C4=O)cc2)cc(C(=O)NCc2c(C)cc(C)[nH]c2=O)c1C)C1CCOCC1 (stereo not drawn) = inactive
2. CCN(c1cc(-c2ccc(C(=O)NCCOCCOCCOc3cccc4c3C(=O)N(C3CCC(=O)NC3=O)C4=O)cc2)cc(C(=O)NCc2c(C)cc(C)[nH]c2=O)c1C)C1CCOCC1 (stereo not drawn) = inactive

----------
# Study target: von Hippel-Lindau disease tumor suppressor/Histone-lysine N-methyltransferase EZH2 (Homo sapiens) (UniProt Q15910+P40337)
# Sequence (P40337 whole entry, looked up): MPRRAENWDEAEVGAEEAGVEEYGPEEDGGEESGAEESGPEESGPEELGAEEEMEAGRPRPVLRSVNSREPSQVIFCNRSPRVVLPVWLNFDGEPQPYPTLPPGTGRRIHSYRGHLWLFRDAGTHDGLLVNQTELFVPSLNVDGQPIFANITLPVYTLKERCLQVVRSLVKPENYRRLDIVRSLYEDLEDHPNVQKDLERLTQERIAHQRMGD
# Sequence (Q15910 whole entry, looked up): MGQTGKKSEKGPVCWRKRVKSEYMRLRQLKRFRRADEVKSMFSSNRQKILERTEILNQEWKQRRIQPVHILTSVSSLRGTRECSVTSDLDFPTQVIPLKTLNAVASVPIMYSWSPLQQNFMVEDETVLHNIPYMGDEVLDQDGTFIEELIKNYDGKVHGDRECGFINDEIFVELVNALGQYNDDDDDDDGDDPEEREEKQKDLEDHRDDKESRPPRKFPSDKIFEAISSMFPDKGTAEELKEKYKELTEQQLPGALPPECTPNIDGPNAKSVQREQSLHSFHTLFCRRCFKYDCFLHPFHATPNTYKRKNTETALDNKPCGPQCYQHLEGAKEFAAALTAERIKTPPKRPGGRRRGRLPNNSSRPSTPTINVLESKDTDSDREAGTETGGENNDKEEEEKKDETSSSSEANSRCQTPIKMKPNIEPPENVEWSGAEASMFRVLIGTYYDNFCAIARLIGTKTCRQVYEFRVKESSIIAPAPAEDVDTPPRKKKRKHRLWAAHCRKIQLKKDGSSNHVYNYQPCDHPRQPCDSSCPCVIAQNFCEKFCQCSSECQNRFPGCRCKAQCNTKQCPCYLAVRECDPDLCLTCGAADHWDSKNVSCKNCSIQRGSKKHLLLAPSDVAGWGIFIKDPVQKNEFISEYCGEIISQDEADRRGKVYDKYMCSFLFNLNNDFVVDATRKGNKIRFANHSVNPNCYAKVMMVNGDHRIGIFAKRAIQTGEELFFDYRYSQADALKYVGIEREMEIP
# Assay: Protac activity at VHL/EZH2 in human 22Rv1 cells assessed as reduction in EZH2 level at 1 uM incubated for 48 hrs by Western blot analysis
# Type: cell-based
Activity calls are given as the source filed them. No cut-off for these calls is given here.
Outcome (select one): active, inactive

Example entries and their recorded answers appear below.
1) CCN(c1cc(-c2ccc(C(=O)NCCOCCOCCOCCOCC(=O)N[C@H](C(=O)N3C[C@H](O)C[C@H]3C(=O)NCc3ccc(-c4scnc4C)cc3)C(C)(C)C)cc2)cc(C(=O)NCc2c(C)cc(C)[nH]c2=O)c1C)C1CCOCC1 = inactive
2) CCN(c1cc(-c2ccc(OCCOCCOCC(=O)N[C@H](C(=O)N3C[C@H](O)C[C@H]3C(=O)NCc3ccc(-c4scnc4C)cc3)C(C)(C)C)cc2)cc(C(=O)NCc2c(C)cc(C)[nH]c2=O)c1C)C1CCOCC1 = active
3) CCN(c1cc(-c2ccc(C(=O)NCCOCCOCCOCC(=O)N[C@H](C(=O)N3C[C@H](O)C[C@H]3C(=O)NCc3ccc(-c4scnc4C)cc3)C(C)(C)C)cc2)cc(C(=O)NCc2c(C)cc(C)[nH]c2=O)c1C)C1CCOCC1 = inactive

Read the next record carefully.
## Task Just curious, what result did `CCN(c1cc(-c2ccc(OCCCOCC(=O)N[C@H](C(=O)N3C[C@H](O)C[C@H]3C(=O)NCc3ccc(-c4scnc4C)cc3)C(C)(C)C)cc2)cc(C(=O)NCc2c(C)cc(C)[nH]c2=O)c1C)C1CCOCC1` get here?
## Result active

----------
# Study target: Protein cereblon/Histone-lysine N-methyltransferase EZH2 (Homo sapiens) (UniProt Q15910+Q96SW2)
# Assay: Protac activity at CRBN E3 ligase/EZH2 in human 22Rv1 cells assessed as inhibition of H3K27me3 at 1 uM incubated for 48 hrs by Western blot analysis
# Format: cell-based
The source made the active and inactive calls. The calls are words filed in the database; no cut-off is given here.
Assay metric: Activity

1. CCN(c1cc(-c2ccc(C(=O)NCCOCCOCCOCCOc3cccc4c3C(=O)N(C3CCC(=O)NC3=O)C4=O)cc2)cc(C(=O)NCc2c(C)cc(C)[nH]c2=O)c1C)C1CCOCC1 (stereo not drawn) = Active
2. CCN(c1cc(-c2ccc(C(=O)NCCOCCNc3cccc4c3C(=O)N(C3CCC(=O)NC3=O)C4=O)cc2)cc(C(=O)NCc2c(C)cc(C)[nH]c2=O)c1C)C1CCOCC1 (stereo not drawn) = Active
3. CCN(c1cc(-c2ccc(C(=O)NCCCCCCNC(=O)COc3cccc4c3C(=O)N(C3CCC(=O)NC3=O)C4=O)cc2)cc(C(=O)NCc2c(C)cc(C)[nH]c2=O)c1C)C1CCOCC1 (stereo not drawn) = Active
